molecular target: Ribosyldihydronicotinamide dehydrogenase [quinone] (Homo sapiens, UniProt P16083); test: Displacement of [125I]iodomelatonin from MT3/QR2 melatonin binding site expressed in CHO cells
reported.metric: IC50 (nM)
All answers are understood in nM, so give the number only.

# compound.structure, tested.target, scale.unit, assay.value
rows = [
    ("CNS(=O)(=O)c1ccc2cccc(CCNC(=O)c3ccco3)c2c1", "Ribosyldihydronicotinamide dehydrogenase [quinone] (Homo sapiens, UniProt P16083)", "nM", 9.12),
    ("COc1ccc2cccc(CCNC(=O)CN3CCCC3=O)c2c1", "Ribosyldihydronicotinamide dehydrogenase [quinone] (Homo sapiens, UniProt P16083)", "nM", 61.7),
    ("CC(=O)NCCc1cccc2ccc(S(N)(=O)=O)cc12", "Ribosyldihydronicotinamide dehydrogenase [quinone] (Homo sapiens, UniProt P16083)", "nM", 32.4),
    ("CNC(=O)c1ccc2cccc(CNC(C)=O)c2c1", "Ribosyldihydronicotinamide dehydrogenase [quinone] (Homo sapiens, UniProt P16083)", "nM", 12),
    ("COc1ccc2[nH]cc(CCNC(C)=O)c2c1[N+](=O)[O-]", "Ribosyldihydronicotinamide dehydrogenase [quinone] (Homo sapiens, UniProt P16083)", "nM", 1.2),
]

// query # lookup: IC50 of C=CCC(=O)NCCc1cccc2ccc(O)cc12
// result 7.76

// query What do we get for COc1ccc2c(CCNC(=O)C3CCC3)cccc2c1 ?
// result 70.8

// query Follow-up item: COC(=O)Nc1ccc2[nH]c(I)c(CCNC(C)=O)c2c1
// result 0.302

// query Same lookup for COC(=O)c1ccc2cccc(CNC(=O)c3ccco3)c2c1 , please.
// result 52.5

// query Same question for COC(=O)Nc1ccc2cccc(CNC(=O)C3CC3)c2c1 please.
// result 24

====

biological target: Ribosyldihydronicotinamide dehydrogenase [quinone] (Homo sapiens); experiment: Displacement of [125I]iodomelatonin from MT3/QR2 melatonin binding site expressed in CHO cells
reported.metric: IC50 (µM)
The answer is to be given in µM; state only the numeric part.

Solved entries:
# compound, IC50 (µM)
data = [
    ("C=CCC(=O)NCCc1coc2ccc(NC(=O)OC)cc12", 0.011),
    ("COc1ccc2cccc(CC3=NC(=O)NC3=O)c2c1", 0.0617),
    ("NC(=O)c1ccc2occ(CCNC(=O)c3ccco3)c2c1", 0.0676),
]

// query Which IC50 reading was recorded for the compound COC(=O)Nc1ccc2occ(CCNC(=O)c3ccccc3)c2c1 ?
// result 0.0676

// query What do we get for CSc1ccc2cccc(CCNC(C)=O)c2c1 ?
// result 0.0182

// query Another: CC(=O)NCCc1cccc2ccc([S+](C)[O-])cc12 (stereo unspecified)
// result 0.0372

====

# pIC50 listing for each entry below
Molecular target: Ribosyldihydronicotinamide dehydrogenase [quinone] (Homo sapiens)
Sequence (P16083 whole entry): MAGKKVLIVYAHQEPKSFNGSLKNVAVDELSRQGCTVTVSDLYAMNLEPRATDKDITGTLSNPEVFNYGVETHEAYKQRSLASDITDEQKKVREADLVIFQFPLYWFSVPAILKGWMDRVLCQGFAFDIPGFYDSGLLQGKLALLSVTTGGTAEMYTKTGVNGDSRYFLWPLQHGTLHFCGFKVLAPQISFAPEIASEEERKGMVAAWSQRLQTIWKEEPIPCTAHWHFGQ
Assay: Displacement of [125I]iodomelatonin from MT3/QR2 melatonin binding site expressed in CHO cells
Please keep in mind that pIC50 is minus log10 of the molar concentration; only the number is needed.

// known answers, use as guide
# compound.structure, tested.target, reported.metric, assay.value
records = [
    ("COC(=O)Nc1ccc2occ(CCNC(=O)C(C)C)c2c1", "Ribosyldihydronicotinamide dehydrogenase [quinone] (Homo sapiens)", "pIC50", 7.64),
    ("CC(C)(C)OC(=O)NCCc1cccc2ccc(O)cc12", "Ribosyldihydronicotinamide dehydrogenase [quinone] (Homo sapiens)", "pIC50", 7.29),
    ("COC(=O)c1ccc2occ(CCNC(C)=O)c2c1", "Ribosyldihydronicotinamide dehydrogenase [quinone] (Homo sapiens)", "pIC50", 7.85),
    ("COc1ccc2cccc(CCNC(=O)C(C)C)c2c1", "Ribosyldihydronicotinamide dehydrogenase [quinone] (Homo sapiens)", "pIC50", 7.36),
    ("COc1ccc2cccc(CCNC(=O)c3ccccc3)c2c1", "Ribosyldihydronicotinamide dehydrogenase [quinone] (Homo sapiens)", "pIC50", 7.54),
]

Turning to the following compound.
// query Would you mind telling me what pIC50 value was observed for COC(=O)Nc1ccc2occ(CCNC(C)=O)c2c1 ?
// result 7.80

====

target: Ribosyldihydronicotinamide dehydrogenase [quinone] (Homo sapiens); test: Displacement of [125I]iodomelatonin from MT3/QR2 melatonin binding site expressed in CHO cells
reported.metric: log10 of IC50 (log10 of the value in µM)
Values below are the log10 of the recorded IC50, with µM as the unit.

Please review the following examples before continuing.
# compound.structure, assay.value
records = [
    ("CCOC(=O)c1[nH]c2ccc(OC)cc2c1CCNC(C)=O", -2.52),
    ("COC(=O)Nc1ccc2occ(CCNC(=O)c3ccco3)c2c1", -1.25),
    ("COc1ccc2occ(CCNC(C)=O)c2c1", -1.19),
    ("COc1ccc2c(c(CCNC(C)=O)cn2C)c1[N+](=O)[O-]", -3.51),
]

// query So what's the measured log10 of IC50 for this one? CC(=O)NCCc1cccc2ccc(S(C)(=O)=O)cc12
// result -1.68

====

biological target: Ribosyldihydronicotinamide dehydrogenase [quinone] (Homo sapiens); experiment: Displacement of [125I]iodomelatonin from MT3/QR2 melatonin binding site expressed in CHO cells
Reported log10 IC50 values for the following molecules.
Remember, log10 of IC50, in µM.

Here's what some known entries look like.
# compound.structure, log10 IC50
data = [
    ("COc1ccc2cccc(CCN3CCOC3=O)c2c1", -1.85),
    ("COc1ccc2c(c1)c(CCNC(C)=O)cn2C", -2.55),
    ("COC(=O)c1ccc2occ(CCNC(=O)C3CCCC3)c2c1", -1.74),
]

// query State the recorded log10 IC50 for this entry: O=C(NCCc1cccc2ccc(O)cc12)c1ccco1
// result -1.96

// query Can you handle CC(=O)NCCc1c[nH]c2ccc([N+](=O)[O-])cc12 next?
// result -1.38

// query Also check COc1ccc2cccc(CCNC(=O)c3ccco3)c2c1
// result -1.27

// query Next: CS(=O)(=O)NCCc1cccc2ccccc12
// result -1.55
